Assayed Target: JAK3 (Homo sapiens, UniProt P52333)
Construct: made in house; host or cells: SF9 insect cells (baculovirus)
Sequence (P52333 783-1124): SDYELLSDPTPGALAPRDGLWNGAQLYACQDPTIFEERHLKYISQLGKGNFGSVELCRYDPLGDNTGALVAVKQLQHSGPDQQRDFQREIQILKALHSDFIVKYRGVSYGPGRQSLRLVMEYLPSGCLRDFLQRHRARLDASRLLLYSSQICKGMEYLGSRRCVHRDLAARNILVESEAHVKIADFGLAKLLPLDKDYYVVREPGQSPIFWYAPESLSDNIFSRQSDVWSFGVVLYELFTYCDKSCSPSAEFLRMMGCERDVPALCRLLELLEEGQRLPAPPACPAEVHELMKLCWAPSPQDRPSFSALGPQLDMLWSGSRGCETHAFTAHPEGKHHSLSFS
Assay Summary: JAK3 inhibition (Table 4)
Format: biochemical
Conditions Used: read-out: JAK3 Ki
Please go through the items and note down their pKi.
Just the number, please; pKi means minus log10 of the concentration in mol/L.

# input Which pKi is listed for CS(=O)(=O)NCCc1nc2cnc3[nH]ccc3c2n1C1CCCCC1 ?
# output 7.55

# input Which pKi is listed for CN(C(=O)Cc1nc2cnc3[nH]ccc3c2n1C1CCN(CCC#N)CC1)C1CCCC1 ?
# output 7.72

# input Which pKi is listed for OCc1nc2cnc3[nH]ccc3c2n1C1CCCOC1 (single isomer, unassigned) [Example 464] ?
# output 6.39

# input Which pKi is listed for N#CCCN1CCC(n2c(CF)nc3cnc4[nH]ccc4c32)CC1 ?
# output 8.52

# input Which pKi is listed for O=C1CCCN1c1ccc(S(=O)(=O)N2CCC(n3cnc4cnc5[nH]ccc5c43)CC2)cc1 ?
# output 7.08

# input Which pKi is listed for CC(O)c1nc2cnc3[nH]ccc3c2n1C1CC2CCC1O2 (single isomer, unassigned) [Example 936] ?
# output 6.48

# input Which pKi is listed for CS(=O)(=O)CCN1CCC[C@@H](n2cnc3cnc4[nH]ccc4c32)C1 ?
# output 7.92

# input Which pKi is listed for N#Cc1cccc(CN2CC[C@@H](n3cnc4cnc5[nH]ccc5c43)C2)c1 ?
# output 6.68

---

Assayed Target: JAK1 (Homo sapiens)
Construct: made in house; host or cells: SF9 insect cells (baculovirus)
Sequence (P23458 852-1154): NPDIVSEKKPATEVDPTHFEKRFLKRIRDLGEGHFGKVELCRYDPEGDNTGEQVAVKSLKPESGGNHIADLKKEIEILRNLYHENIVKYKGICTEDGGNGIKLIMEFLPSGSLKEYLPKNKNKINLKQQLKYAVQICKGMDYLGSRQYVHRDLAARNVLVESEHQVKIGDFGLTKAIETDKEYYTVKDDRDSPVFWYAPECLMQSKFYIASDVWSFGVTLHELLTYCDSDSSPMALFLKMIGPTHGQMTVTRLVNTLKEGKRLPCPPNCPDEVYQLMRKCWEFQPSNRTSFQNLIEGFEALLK
Assay Summary: JAK1 inhibition (Table 4)
Type: biochemical
Conditions Used: read-out: JAK1 Ki
# Ki binned as low class (below 9 nM), middle class (9 nM to below 60 nM), high class (60 nM or more)

# input Record NC(=O)Cc1nc2cnc3[nH]ccc3c2n1C1CCNCC1 [Example 260] — which class?
# output middle class

# input Record COCC(=O)NCCc1nc2cnc3[nH]ccc3c2n1C1CCN(CCC#N)CC1 [Example 372] — which class?
# output low class

# input Record FCCN1CCC(n2cnc3cnc4[nH]ccc4c32)CC1 [Example 212] — which class?
# output low class

# input Record C[C@@H](O)c1nc2cnc3[nH]ccc3c2n1[C@@H]1CCCO1 [Example 659] — which class?
# output middle class

# input Record OC1CCCC(n2cnc3cnc4[nH]ccc4c32)C1 (single isomer, unassigned) [Example 560] — which class?
# output low class

# input Record C[C@@H](O)c1nc2cnc3[nH]ccc3c2n1C1CCN(Cc2ncccc2F)CC1 [Example 682] — which class?
# output low class

# input Record CN(C)C(=O)CN1CCC(n2cnc3cnc4[nH]ccc4c32)CC1 [Example 62] — which class?
# output middle class

# input Record COCC(=O)N1CCC(n2cnc3cnc4[nH]ccc4c32)CC1 [Example 192] — which class?
# output middle class

# input Record N#CCCN1CCC(n2c(CO)nc3cnc4[nH]ccc4c32)CC1 [Example 239] — which class?
# output low class

# input Record CC(=O)NCc1nc2cnc3[nH]ccc3c2n1C1CCN(CCC#N)CC1 [Example 492] — which class?
# output middle class

# input Record N#CCC(=O)N1CC[C@@H](n2cnc3cnc4[nH]ccc4c32)C1 [Example 37] — which class?
# output middle class

# input Record CCC(C)Cc1nc2cnc3[nH]ccc3c2n1C1CCN(CCC#N)CC1 (racemic) [Example 122] — which class?
# output high class

# input Record CC(=O)NCCc1nc2cnc3[nH]ccc3c2n1[C@@H]1CCCOC1 [Example 865] — which class?
# output high class

# input Record CN(C)CCC(=O)N1CCC(n2cnc3cnc4[nH]ccc4c32)CC1 [Example 439] — which class?
# output high class

# input Record Cc1noc(CN2CCC(n3c(C(C)O)nc4cnc5[nH]ccc5c43)C(F)C2)n1 (stereo not drawn) [Example 912] — which class?
# output low class

# input Record O=C([C@@H]1CCCCN1C1COC1)N1CCC(n2cnc3cnc4[nH]ccc4c32)CC1 [Example 951] — which class?
# output high class

# input Record COCC(=O)NC1CCCC(n2cnc3cnc4[nH]ccc4c32)C1 (single isomer, unassigned) [Example 481] — which class?
# output high class
